Parameter: phosphorylation enrichment. Scope: all listed entries.
system: c-Abl (mouse); test: phosphorylation enrichment, bacterial display (enrichment ratio); higher = better substrate or ligand; peptides without Tyr show the background;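 note: 11-residue human phosphosite peptides and single-mutation variants displayed on the E. coli surface, counted by deep sequencing, each peptide's frequency after selection divided by its frequency in the unselected input library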;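 note: frequency after pTyr selection over input frequency; kinase dosed for 20-30% of maximal phosphorylation in three min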
endpointLabel: phosphorylation enrichment

[
  {
    "seqText": "KNNDGYTDYAE [MCFD2_Y135_I136T]",
    "observedResult": 0.85
  },
  {
    "seqText": "GGQVFHNSEYG [FLT4_Y1333_Y1333H]",
    "observedResult": 0.857
  },
  {
    "seqText": "PFRQWYESHFA [RPS8_Y113_YF]",
    "observedResult": 0.764
  },
  {
    "seqText": "TFLRTYTDTMQ [TSPAN7_Y124_A127T]",
    "observedResult": 0.69
  },
  {
    "seqText": "GHLYAYDWIRI [BEST1_Y227_S231R]",
    "observedResult": 0.857
  },
  {
    "seqText": "HGAKVYIDPFT [EPHB4_Y590_T587A]",
    "observedResult": 0.831
  },
  {
    "seqText": "PFSNPYENSLI [EPOR_Y489_YF]",
    "observedResult": 1.18
  },
  {
    "seqText": "PLGVPYLDKPP [JMJD7_Y31_A28G]",
    "observedResult": 1.57
  },
  {
    "seqText": "DSGRDYVSQFE [APOA1_Y53]",
    "observedResult": 0.601
  },
  {
    "seqText": "EATKVYLDDPT [G6PD_Y322_G321V]",
    "observedResult": 0.656
  },
  {
    "seqText": "LKEIRYPPYTD [ALDH3B2_Y362_H361R]",
    "observedResult": 0.749
  },
  {
    "seqText": "FEPDAYFDLDQ [ELP5_Y302_D303Y_YF]",
    "observedResult": 0.91
  },
  {
    "seqText": "NDEDIYKGLPD [VAV3_Y141]",
    "observedResult": 0.802
  },
  {
    "seqText": "RQNNSYTCFTA [SLC20A2_Y386_R382Q_YF]",
    "observedResult": 0.802
  },
  {
    "seqText": "QRDSSYFWEIE [RAF1_Y340_YF]",
    "observedResult": 0.989
  },
  {
    "seqText": "MSSHHCDYKKY [ZNF445_Y428_Y428C]",
    "observedResult": 0.517
  },
  {
    "seqText": "EDKFMYSEFPQ [PTEN_Y240_F241S]",
    "observedResult": 1.03
  },
  {
    "seqText": "NSVLVYRNGDP [DCDC2_Y22_K17N]",
    "observedResult": 0.534
  },
  {
    "seqText": "IPPRRYFCSGV [STAMBP_Y36_R38C]",
    "observedResult": 0.593
  },
  {
    "seqText": "KFACSYTPVKA [FLNB_Y708_T703K_YF]",
    "observedResult": 0.577
  },
  {
    "seqText": "MACDRYVAICS [OR8D4_Y123]",
    "observedResult": 0.55
  },
  {
    "seqText": "WFKKFYDANYD [MAPRE2_Y158]",
    "observedResult": 0.774
  },
  {
    "seqText": "PRSRSYFSTSI [REPS2_Y462_S463F]",
    "observedResult": 0.452
  },
  {
    "seqText": "RSDSTYRMSAT [NHS_Y1532_S1531T]",
    "observedResult": 0.697
  },
  {
    "seqText": "HFGNNYRDVLQ [MACC1_Y803_YF]",
    "observedResult": 0.848
  },
  {
    "seqText": "SISLKYEGRVY [ABL1_Y167_R166K]",
    "observedResult": 0.983
  },
  {
    "seqText": "AKKMKYFEGVS [PRKDC_Y682_I680M]",
    "observedResult": 0.404
  },
  {
    "seqText": "IHADICRWFNI [MARS1_Y344_Y344C]",
    "observedResult": 0.697
  },
  {
    "seqText": "QMRLKYSQSDL [SMC1A_Y714]",
    "observedResult": 0.632
  }
]
